experiment: Plasma pharmacokinetics of BI 187004 after single oral doses (LC–MS/MS); settings: male, human, plasma, po, 80 mg, BI 187004 plasma concentrations, 80 mg single oral, planned time 8 h, Mean
observable: concentration at 8 h (nM)
Use nM as the unit, but write only the number.

Task: Give the reported concentration at 8 h for this molecule. N#Cc1ccc2c(c1)[C@H]1CCCN(C(=O)c3ccc4[nH]cnc4c3)[C@H]1C2
Output: 1820

###

test: Plasma pharmacokinetics of BI 187004 after single oral doses (LC–MS/MS); conditions: male, human, plasma, po, 240 mg, BI 187004 plasma concentrations, Min, 240 mg single oral, planned time 1 h
observable: concentration at 1 h (nM)
Use nM as the unit, but write only the number.

Task: Give the reported concentration at 1 h for this molecule. N#Cc1ccc2c(c1)[C@H]1CCCN(C(=O)c3ccc4[nH]cnc4c3)[C@H]1C2
Output: 440

###

experiment: Plasma pharmacokinetics of BI 187004 after single oral doses (LC–MS/MS); conditions: male, human, plasma, oral, 360 mg, Plasma C24 gMean (range), 360 mg single dose; 24 h
observable: concentration at 24 h
Put your answer as a value accompanied by its unit after it.

Task: Give the reported concentration at 24 h for this compound. N#Cc1ccc2c(c1)[C@H]1CCCN(C(=O)c3ccc4[nH]cnc4c3)[C@H]1C2
Output: 2690 nM

###

test: Plasma pharmacokinetics of BI 187004 after single oral doses (LC–MS/MS); settings: male, human, plasma, po, 2.5 mg, Plasma concentration Median, 2.5 mg single oral; 3 h
observable: concentration at 3 h (nM)
Use nM as the unit, but write only the number.

Task: Give the reported concentration at 3 h for this molecule. N#Cc1ccc2c(c1)[C@H]1CCCN(C(=O)c3ccc4[nH]cnc4c3)[C@H]1C2 [BI 187004]
Output: 6.66

###

test: Plasma pharmacokinetics of BI 187004 after single oral doses (LC–MS/MS); conditions: male, human, plasma, po, 40 mg, BI 187004 plasma concentrations, 40 mg single oral, planned time 1.5 h, Median
observable: concentration at 1.5 h (nM)
Use nM as the unit, but write only the number.

Task: Give the reported concentration at 1.5 h for this compound. N#Cc1ccc2c(c1)[C@H]1CCCN(C(=O)c3ccc4[nH]cnc4c3)[C@H]1C2
Output: 2160

###

experiment: Plasma pharmacokinetics of BI 187004 after single oral doses (LC–MS/MS); details: male, human, plasma, po, 360 mg
observable: Tmax

Task: Give the reported Tmax for this compound. N#Cc1ccc2c(c1)[C@H]1CCCN(C(=O)c3ccc4[nH]cnc4c3)[C@H]1C2
Output: 1 h

###

experiment: Plasma pharmacokinetics of BI 187004 after single oral doses (LC–MS/MS); settings: male, human, plasma, po, 240 mg, BI 187004 plasma concentrations, Min, 240 mg single oral, planned time 24 h
observable: concentration at 24 h (nM)
Use nM as the unit, but write only the number.

Task: Give the reported concentration at 24 h for this compound. N#Cc1ccc2c(c1)[C@H]1CCCN(C(=O)c3ccc4[nH]cnc4c3)[C@H]1C2
Output: 1530

###

assay: Plasma pharmacokinetics of BI 187004 after single oral doses (LC–MS/MS); conditions: male, human, plasma, po, 160 mg, BI 187004 plasma concentrations, 160 mg single oral, planned time 2.5 h, gMean
observable: concentration at 2.5 h (µM)
Use µM as the unit, but write only the number.

Task: Give the reported concentration at 2.5 h for this molecule. N#Cc1ccc2c(c1)[C@H]1CCCN(C(=O)c3ccc4[nH]cnc4c3)[C@H]1C2
Output: 6.7

###

experiment: Plasma pharmacokinetics of BI 187004 after single oral doses (LC–MS/MS); conditions: male, human, plasma, po, 160 mg
observable: Cmax (µM)
Use µM as the unit, but write only the number.

Task: Give the reported Cmax for this compound. N#Cc1ccc2c(c1)[C@H]1CCCN(C(=O)c3ccc4[nH]cnc4c3)[C@H]1C2
Output: 8.31

###

assay: Plasma pharmacokinetics of BI 187004 after single oral doses (LC–MS/MS); details: male, human, plasma, po, 5 mg, Plasma concentration, individual subjects, 5 mg single oral; planned time 2.5 h
observable: concentration at 2.5 h (nM)
Use nM as the unit, but write only the number.

Task: Give the reported concentration at 2.5 h for this compound. N#Cc1ccc2c(c1)[C@H]1CCCN(C(=O)c3ccc4[nH]cnc4c3)[C@H]1C2
Output: 122

###

experiment: Plasma pharmacokinetics of BI 187004 after single oral doses (LC–MS/MS); settings: male, human, plasma, po, 360 mg, BI 187004 plasma concentrations, Min, 360 mg single oral, planned time 8 h
observable: concentration at 8 h (µM)
Use µM as the unit, but write only the number.

Task: Give the reported concentration at 8 h for this compound. N#Cc1ccc2c(c1)[C@H]1CCCN(C(=O)c3ccc4[nH]cnc4c3)[C@H]1C2 [BI 187004]
Output: 5.06

###

assay: Plasma pharmacokinetics of BI 187004 after single oral doses (LC–MS/MS); settings: male, human, plasma, po, 240 mg, BI 187004 plasma concentrations, Min, 240 mg single oral, planned time 1.5 h
observable: concentration at 1.5 h
Put your answer as a value accompanied by its unit after it.

Task: Give the reported concentration at 1.5 h for this molecule. N#Cc1ccc2c(c1)[C@H]1CCCN(C(=O)c3ccc4[nH]cnc4c3)[C@H]1C2 [BI 187004]
Output: 811 nM

###

test: Plasma pharmacokinetics of BI 187004 after single oral doses (LC–MS/MS); conditions: male, human, plasma, po, 160 mg, BI 187004 plasma concentrations, 160 mg single oral, planned time 2 h, Min
observable: concentration at 2 h
Put your answer as a value accompanied by its unit after it.

Task: Give the reported concentration at 2 h for this molecule. N#Cc1ccc2c(c1)[C@H]1CCCN(C(=O)c3ccc4[nH]cnc4c3)[C@H]1C2
Output: 6.36 µM

###

assay: Plasma pharmacokinetics of BI 187004 after single oral doses (LC–MS/MS); settings: male, human, plasma, po, 80 mg, BI 187004 plasma concentrations, 80 mg single oral, planned time 1.5 h, Mean
observable: concentration at 1.5 h (nM)
Use nM as the unit, but write only the number.

Task: Give the reported concentration at 1.5 h for this compound. N#Cc1ccc2c(c1)[C@H]1CCCN(C(=O)c3ccc4[nH]cnc4c3)[C@H]1C2 [BI 187004]
Output: 2500

###

experiment: Plasma pharmacokinetics of BI 187004 after single oral doses (LC–MS/MS); conditions: male, human, plasma, po, 80 mg, BI 187004 plasma concentrations, 80 mg single oral, planned time 6 h, gMean
observable: concentration at 6 h (µM)
Use µM as the unit, but write only the number.

Task: Give the reported concentration at 6 h for this molecule. N#Cc1ccc2c(c1)[C@H]1CCCN(C(=O)c3ccc4[nH]cnc4c3)[C@H]1C2 [BI 187004]
Output: 1.65

###

assay: Plasma pharmacokinetics of BI 187004 after single oral doses (LC–MS/MS); conditions: male, human, plasma, po, 10 mg, Plasma concentration Median, 10 mg single oral; 1.5 h
observable: concentration at 1.5 h (nM)
Use nM as the unit, but write only the number.

Task: Give the reported concentration at 1.5 h for this molecule. N#Cc1ccc2c(c1)[C@H]1CCCN(C(=O)c3ccc4[nH]cnc4c3)[C@H]1C2
Output: 435

###

experiment: Plasma pharmacokinetics of BI 187004 after single oral doses (LC–MS/MS); conditions: male, human, plasma, po, 80 mg, BI 187004 plasma concentrations, 80 mg single oral, planned time 5 h, Median
observable: concentration at 5 h (nM)
Use nM as the unit, but write only the number.

Task: Give the reported concentration at 5 h for this compound. N#Cc1ccc2c(c1)[C@H]1CCCN(C(=O)c3ccc4[nH]cnc4c3)[C@H]1C2
Output: 2040

###

experiment: Plasma pharmacokinetics of BI 187004 after single oral doses (LC–MS/MS); settings: male, human, plasma, po, 2.5 mg, Plasma concentration, individual subjects, 2.5 mg single oral; planned time 10 h
observable: concentration at 10 h (nM)
Use nM as the unit, but write only the number.

Task: Give the reported concentration at 10 h for this molecule. N#Cc1ccc2c(c1)[C@H]1CCCN(C(=O)c3ccc4[nH]cnc4c3)[C@H]1C2
Output: 5.99

###

experiment: Plasma pharmacokinetics of BI 187004 after single oral doses (LC–MS/MS); settings: male, human, plasma, po, 240 mg, BI 187004 plasma concentrations, gMean, 240 mg single oral, planned time 2 h
observable: concentration at 2 h (µM)
Use µM as the unit, but write only the number.

Task: Give the reported concentration at 2 h for this molecule. N#Cc1ccc2c(c1)[C@H]1CCCN(C(=O)c3ccc4[nH]cnc4c3)[C@H]1C2
Output: 4.71

###

test: Plasma pharmacokinetics of BI 187004 after single oral doses (LC–MS/MS); settings: male, human, plasma, po, 160 mg
observable: Vd/F

Task: Give the reported Vd/F for this compound. N#Cc1ccc2c(c1)[C@H]1CCCN(C(=O)c3ccc4[nH]cnc4c3)[C@H]1C2 [BI 187004]
Output: 87.9 L

Value source: paper PMC8364686
